For each entry below, report its IC50 value.
Unit nM implied. Number only.

Task item: Provide measured IC50 on UniProt:Q99705 for O=C(CCCCCCCCCCCCc1ccc(C(F)(F)F)cc1)Nc1ccc2nc([N+]34CCC(CC3)CC4)ccc2c1 please.
Sequence (Q99705 whole entry): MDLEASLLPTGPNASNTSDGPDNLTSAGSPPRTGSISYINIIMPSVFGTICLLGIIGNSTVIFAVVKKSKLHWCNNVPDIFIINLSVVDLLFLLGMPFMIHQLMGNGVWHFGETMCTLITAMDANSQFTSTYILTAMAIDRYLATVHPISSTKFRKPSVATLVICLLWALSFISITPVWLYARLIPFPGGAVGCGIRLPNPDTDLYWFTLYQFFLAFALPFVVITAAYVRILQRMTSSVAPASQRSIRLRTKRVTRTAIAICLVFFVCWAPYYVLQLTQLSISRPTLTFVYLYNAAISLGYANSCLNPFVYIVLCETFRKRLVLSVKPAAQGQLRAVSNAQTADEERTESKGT
Reply: 5

Task item: Provide measured IC50 on UniProt:Q99705 for COC(=O)C1CCCN1c1ccc2cc(NC(=O)CCc3ccc(C(F)(F)F)cc3)ccc2n1 (stereo unspecified) please.
Reply: 800

Task item: Provide measured IC50 on UniProt:Q99705 for O=C(CCc1ccc(C(F)(F)F)cc1)Nc1ccc2nc(N3CCC4(CCNC4)C3)ccc2c1 (stereo unspecified) please.
Reply: 0.5

Task item: Provide measured IC50 on UniProt:Q99705 for O=C(CCc1ccc(C(F)(F)F)cc1)Nc1ccc2nc(N3CC4CCC3CC4)ccc2c1 please.
Reply: 3

Task item: Provide measured IC50 on UniProt:Q99705 for NC1CCN(c2ccc3cc(NC(=O)CCc4ccc(C(F)(F)F)cc4)ccc3n2)C1 (stereo unspecified) please.
Reply: 12

Task item: Provide measured IC50 on UniProt:Q99705 for CCCc1cc(N(C)C)c2cc(NC(=O)CCc3ccc(C(F)(F)F)cc3)ccc2n1 please.
Reply: 12

----------
- TEST_SYSTEM: UniProtKB Q99705
REPORTED_PROPERTY: pIC50
Quick note: pIC50 values are minus log10 of concentrations in mol/L.

Task item: Quote pIC50 reported for CC(C)C(=O)NC1CCN(c2ccc3cc(NC(=O)CCc4ccc(C(F)(F)F)cc4)ccc3n2)C1 (stereo not given) please.
Reply: 9.00

Task item: Quote pIC50 reported for CN(c1ccc2cc(NC(=O)CCc3ccc(C(F)(F)F)cc3)ccc2n1)C1CCCC1 please.
Reply: 8.70

Task item: Quote pIC50 reported for CNC(=O)NC1CCN(c2ccc3cc(NC(=O)CCc4ccc(C(F)(F)F)cc4)ccc3n2)C1 (stereo not given) please.
Reply: 8.22

Task item: Quote pIC50 reported for CCCN(CCC)c1ccc2cc(NC(=O)CCc3ccc(C(F)(F)F)cc3)ccc2n1 please.
Reply: 6.31

Task item: Quote pIC50 reported for O=C(CCc1ccc(C(F)(F)F)cc1)Nc1ccc2nc(N3CCC3)ccc2c1 please.
Reply: 8.40

Task item: Quote pIC50 reported for Nc1ccc2cc(NC(=O)CCc3ccc(C(F)(F)F)cc3)ccc2n1 please.
Reply: 6.62

Task item: Quote pIC50 reported for O=C(CCc1ccc(C(F)(F)F)cc1)Nc1ccc2nc(N3CC4CC3CN4)ccc2c1 (stereo not given) please.
Reply: 6.68

Task item: Quote pIC50 reported for O=C(CCc1ccc(C(F)(F)F)cc1)Nc1ccc2nc(N3CCCCCC3)ccc2c1 please.
Reply: 7.44

Task item: Quote pIC50 reported for O=C(CCc1ccc(C(F)(F)F)cc1)Nc1ccc2nc(N3CCCCC3)ccc2c1 please.
Reply: 7.92

Task item: Quote pIC50 reported for CN(C)c1ccc2cc(NC(=O)CCc3ccc(C(F)(F)F)cc3)ccc2n1 please.
Reply: 7.89

----------
- PROTOCOL_NOTES: Half-life in rats
- Type: ADME, organism-based
- CONDITION_SET: rat, in vivo
REPORTED_PROPERTY: half-life (min)
Unit min implied. Number only.

Task item: Quote half-life reported for O=C(Nc1ccc2nc([N+]34CCC(CC3)CC4)ccc2c1)c1ccc(C(F)(F)F)nc1 please.
Reply: 66

Task item: Quote half-life reported for O=C(CCCCCCCCCCCCc1ccc(C(F)(F)F)cc1)Nc1ccc2nc([N+]34CCC(CC3)CC4)ccc2c1 please.
Reply: 36
